system: TNFα; assay: Measurement of LPS Induced-TNFα in THP-1 Cells; assay type: cell-based, human; details: Homo sapiens, THP-1; compound 10 uM; 5 ng/mL LPS; read-out: Mean Percent Inhibition of TNF-alpha using 5 ng/mL LPS
measurement_type: inhibition at 10 µM (%)
State just the number; it will be interpreted in %.

>>> observed_result("COC1CC(C)(C)N(O)C(C)(C)C1.Cl [Compound 1]")
50
>>> observed_result("CC1(C)CC(N2CCOCC2)CC(C)(C)N1O.Cl [Compound 3]")
60

# input for lookup
[ask] If you can, please state the reported inhibition at 10 µM value of CC1(C)CC(Oc2nsnc2N2CCOCC2)CC(C)(C)N1O.Cl [Compound 4] .
[reply] 61
